The measurements presented in this section are drawn from the supplement of paper PMC8728848.

glycan array binding signal (z-score) values, listed per item
Target: Fuc(a1-2)[Gal(a1-3)]Gal(b1-3)GlcNAc(b1-2)Man(a1-3)[Fuc(a1-2)[Gal(a1-3)]Gal(b1-3)GlcNAc(b1-2)Man(a1-6)]Man(b1-4)GlcNAc(b1-4)GlcNAc
Experiment: glycan array binding signal (z-score within array); higher = stronger binding
Details: glycan notation: IUPAC condensed, linker removed
The full list was thinned out, with the strongest signals kept by preference.

binder="PGP3 (Chlamydia trachomatis), P0CE18 (protein) MGNSGFYLYNTQNCVFADNIKVGQMTEPLKDQQIILGTTSTPVAAKMTASDGISLTVSNNPSTNASITIGLDAEKAYQLILEKLGDQILGGIADTIVDSTVQDILDKITTDPSLGLLKAFNNFPITNKIQCNGLFTPRNIETLLGGTEIGKFTVTPKSSGSMFLVSADIIASRMEGGVVLALVREGDSKPYAISYGYSSGVPNLCSLRTRIINTGLTPTTYSLRVGGLESGVVWVNALSNGNDILGITNTSNVSFLEVIPQTNA" recorded_value=5.67

Continue with the binder presented below.
Enquiry: Bench note: what glycan array binding signal (z-score) did Epa6 (Candida glabrata), Q6DTM7_CANGB (protein) MGSSHHHHHHSSGLVPRGSHMKDDYSSSLSNNNLGWTDPTEFPLGCSPNVTTPKNGLSMELYSYDYLKSGSNPCWDAAYLDPNYPRTGYKSHRLLAKVENVAGNINFYYHAPMGCTSLFDTLPQAYNYRTPLTMTNFTMLLYGYFKPKVTGYHTFTISADDLLFVNFGAGNAFDCCKRESSADDFGNYQAYAVWGSQTAKDDLTVHLDAGLYYPIRIFFNNRDNDGALSLTLKTESDPNPVIDFSDYFYSFDDTKDGCPGLVSYDTS show?
Return: 0.454
